system: OVCAR-4 ovarian; assay: NCI tumour cell line growth inhibition, 48 h
molecules and their reported TGI
The answer is to be given in µM; state only the numeric part.

{"smilesData": "O=C(c1ccc(Cl)c(Cl)c1)N(C(=O)N1CCN(c2ccccc2)CC1)S(=O)(=O)c1ccccc1", "reportedMetric": "TGI", "valueMeasured": 65.6}
{"smilesData": "O=C(Nc1cc(C(F)(F)F)cc(C(F)(F)F)c1)Nc1ccc(OCc2nnc(-c3ccc(Cl)cc3)o2)c(F)c1", "reportedMetric": "TGI", "valueMeasured": 10}

Now, please, on to the next molecule.
-- ask Give the measured TGI of CC(C)=CC[C@H]1C[C@@]2(CC=C(C)C)C(=O)/C(=C(/O)c3ccccc3)C(=O)[C@](CC=C(C)C)(C2=O)C1(C)C .
-- reply 26.4

###

TGI values by entry
system: MOLT-4 leukemia; assay: NCI tumour cell line growth inhibition, 48 h

Consider the worked cases shown below.
{"compound": "C/C(=C(/C)c1cc[n+](C)cc1)c1cc[n+](C)cc1", "targetSystem": "MOLT-4 leukemia", "TGI": "> 75 µM"}
{"compound": "O=C1Nc2ccc(CN3CCOC3=O)cc2/C1=C/c1cc(CN2CCOCC2)c[nH]1", "targetSystem": "MOLT-4 leukemia", "TGI": "78.7 µM"}
{"compound": "Nc1cc(N)cc(Cc2ccccc2)c1", "targetSystem": "MOLT-4 leukemia", "TGI": "> 100 µM"}
{"compound": "CCOC(=O)C1=C(C)N(NC(=O)OC)C2(N)N(NC(=O)OC)C(C)=C(C(=O)OCC)C12C#N (centres undefined)", "targetSystem": "MOLT-4 leukemia", "TGI": "> 100 µM"}

-- ask What TGI value was documented for this compound, N#CCN1CCN(CC#N)CCN(CC#N)CCN(CC#N)CC1 ?
-- reply > 100 µM

-- ask Name the recorded TGI for Cc1cc(S(=O)(=O)Nc2nc3ccccc3[nH]2)c(SCc2ccccc2)cc1Cl .
-- reply 85.6 µM

-- ask May I ask what TGI has been recorded for C[CH2][Ge]([CH2]C)([CH2]C)[O]C(=O)C([O][Ge]([CH2]C)([CH2]C)[CH2]C)c1ccccc1 (centres undefined) ?
-- reply > 100 µM

-- ask // TGI lookup, key: CCOc1ccc(N=Nc2ccc(-c3ccc(N=Nc4c(O)ccc5cc(S(=O)(=O)O)cc(S(=O)(=O)O)c45)cc3)cc2)cc1
-- reply > 100 µM

###

test system: HL-60(TB) leukemia; test: NCI tumour cell line growth inhibition, 48 h
reportedMetric: TGI (µM)
Quick note: give the figure in µM, leave out the unit.

// known answers, use as guide
{"smilesData": "CCOc1ccc2c(c1)C(=O)c1c-2n(CCCN)c(=O)c2cc([N+](=O)[O-])ccc12", "TGI / µM": 2.4}
{"smilesData": "C=C1C(=O)O[C@H]2[C@H]1CC/C(COC(=O)C(=O)c1c[nH]c3ccc(Cl)cc13)=C\\CC[C@@]1(C)O[C@@H]21", "TGI / µM": 5.09}
{"smilesData": "Cc1nc2ccccc2c(/C=C/c2ccccc2)c1C(=O)/C=C/c1ccc(Cl)cc1", "TGI / µM": 3.12}
{"smilesData": "O=[N+]([O-])c1ccc2nc3ccscc-3c2c1", "TGI / µM": 30.4}

# next molecule below
-- ask Param item = O=C(Nc1nc(-c2ccccc2)cs1)c1cc(O)c(O)c(O)c1 ; retrieve measured TGI.
-- reply 10.1

Where do the numbers come from? From PubChem BioAssay (NCI).
